Test system: 521955-158-R2-J5-PDC complex spheroid viability
protocolDescription: Anticancer human tumor 521955-158-R2-J5-PDC patient-derived pancreatic carcinoma cell line growth inhibition; active = viability on the fitted dose curve at most 10% of control; inactive = the rest
runParameters: second compound 3.16 µM; first compound 3 µM
In this exercise, the only acceptable responses are 1 (yes) for active, 0 (no) for inactive

INPUT: What did the test return for COc1cc(C2c3cc4c(cc3C(OC3OC5COC(C)OC5C(O)C3O)C3COC(=O)C23)OCO4)cc(OC)c1O (stereo not given) + NC1CCC(NC2CC2c2ccccc2)CC1 ?
OUTPUT: 1 (yes)

INPUT: What did the test return for NS(=O)(=O)OCC1CC(n2ccc3c(NC4CCc5ccccc54)ncnc32)CC1O (stereo not given) + NC1CCC(NC2CC2c2ccccc2)CC1 ?
OUTPUT: 1 (yes)

INPUT: What did the test return for Nc1ccccc1NC(=O)c1ccc(CNC(=O)OCc2cccnc2)cc1 + NC1CCC(NC2CC2c2ccccc2)CC1 ?
OUTPUT: 1 (yes)

INPUT: What did the test return for COc1cc(C2c3cc4c(cc3C(OC3OC5COC(C)OC5C(O)C3O)C3COC(=O)C23)OCO4)cc(OC)c1O (stereo not given) + NC1CC1c1ccc(-c2cccc(O)c2)cc1 ?
OUTPUT: 0 (no)

INPUT: What did the test return for NS(=O)(=O)OCC1CC(n2ccc3c(NC4CCc5ccccc54)ncnc32)CC1O (stereo not given) + NC1CC1c1ccc(-c2cccc(O)c2)cc1 ?
OUTPUT: 0 (no)

INPUT: What did the test return for Nc1ccccc1NC(=O)c1ccc(CNC(=O)OCc2cccnc2)cc1 + NC1CC1c1ccc(-c2cccc(O)c2)cc1 ?
OUTPUT: 1 (yes)

INPUT: What did the test return for O=C(C=Cc1cccc(S(=O)(=O)Nc2ccccc2)c1)NO + NC1CCC(NC2CC2c2ccccc2)CC1 ?
OUTPUT: 0 (no)

INPUT: What did the test return for CCN(c1cc(-c2ccc(CN3CCOCC3)cc2)cc(C(=O)NCc2c(C)cc(C)[nH]c2=O)c1C)C1CCOCC1 + NC1CC1c1ccc(-c2cccc(O)c2)cc1 ?
OUTPUT: 0 (no)

INPUT: What did the test return for CCN(c1cc(-c2ccc(CN3CCOCC3)cc2)cc(C(=O)NCc2c(C)cc(C)[nH]c2=O)c1C)C1CCOCC1 + NC1CCC(NC2CC2c2ccccc2)CC1 ?
OUTPUT: 0 (no)

INPUT: What did the test return for O=C(C=Cc1cccc(S(=O)(=O)Nc2ccccc2)c1)NO + NC1CC1c1ccc(-c2cccc(O)c2)cc1 ?
OUTPUT: 1 (yes)

###

Test system: 521955-158-R2-J5-PDC complex spheroid viability
protocolDescription: Anticancer human tumor 521955-158-R2-J5-PDC cell line growth inhibition;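 also: spheroids exposed to agents for seven days; percent of DMSO vehicle control luminescence viability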
runParameters: second compound 1 µM; first compound 0.316 µM; active compounds read low
For each record, check the reported viability, T/C: if it is below 70% write satisfied, else write not satisfied.

INPUT: Consider the molecule COc1ccc([C@@H](O)c2cc(-c3ncnc4cc(N5CCOCC5)ccc34)c(F)cc2Cl)nn1 + NC1CC1c1ccc(-c2cccc(O)c2)cc1 . Is its viability, T/C strictly less than 70%?
OUTPUT: satisfied

INPUT: Consider the molecule COc1ccc([C@@H](O)c2cc(-c3ncnc4cc(N5CCOCC5)ccc34)c(F)cc2Cl)nn1 + NC1CCC(NC2CC2c2ccccc2)CC1 . Is its viability, T/C strictly less than 70%?
OUTPUT: satisfied

INPUT: Consider the molecule CC1(C)CCC(CN2CCN(c3ccc(C(=O)NS(=O)(=O)c4ccc(NCC5CCOCC5)c([N+](=O)[O-])c4)c(Oc4cnc5[nH]ccc5c4)c3)CC2)=C(c2ccc(Cl)cc2)C1 + NC1CCC(NC2CC2c2ccccc2)CC1 . Is its viability, T/C strictly less than 70%?
OUTPUT: not satisfied

INPUT: Consider the molecule O=C(C=Cn1cnc(-c2cc(C(F)(F)F)cc(C(F)(F)F)c2)n1)NNc1cnccn1 + NC1CCC(NC2CC2c2ccccc2)CC1 . Is its viability, T/C strictly less than 70%?
OUTPUT: satisfied

INPUT: Consider the molecule CC1COCCN1c1cc(C2(S(C)(=N)=O)CC2)nc(-c2ccnc3[nH]ccc23)n1 (stereo not drawn) + NC1CC1c1ccc(-c2cccc(O)c2)cc1 . Is its viability, T/C strictly less than 70%?
OUTPUT: not satisfied

INPUT: Consider the molecule CC(C)c1c(-c2ccccc2)nc2c(C#N)c[nH]n2c1=O + NC1CCC(NC2CC2c2ccccc2)CC1 . Is its viability, T/C strictly less than 70%?
OUTPUT: not satisfied

INPUT: Consider the molecule CC(C)c1c(-c2ccccc2)nc2c(C#N)c[nH]n2c1=O + NC1CC1c1ccc(-c2cccc(O)c2)cc1 . Is its viability, T/C strictly less than 70%?
OUTPUT: not satisfied

INPUT: Consider the molecule CC1(C)CCC(CN2CCN(c3ccc(C(=O)NS(=O)(=O)c4ccc(NCC5CCOCC5)c([N+](=O)[O-])c4)c(Oc4cnc5[nH]ccc5c4)c3)CC2)=C(c2ccc(Cl)cc2)C1 + NC1CC1c1ccc(-c2cccc(O)c2)cc1 . Is its viability, T/C strictly less than 70%?
OUTPUT: not satisfied

INPUT: Consider the molecule O=C(c1cc(Cc2n[nH]c(=O)c3ccccc23)ccc1F)N1CCN(C(=O)C2CC2)CC1 + NC1CCC(NC2CC2c2ccccc2)CC1 . Is its viability, T/C strictly less than 70%?
OUTPUT: not satisfied

INPUT: Consider the molecule Nc1ncn(C2CC(O)C(CO)O2)c(=O)n1 (stereo not drawn) + NC1CCC(NC2CC2c2ccccc2)CC1 . Is its viability, T/C strictly less than 70%?
OUTPUT: satisfied

INPUT: Consider the molecule CC1COCCN1c1cc(-c2ccnn2C)c2ccnc(-c3ccn[nH]3)c2n1 (stereo not drawn) + NC1CC1c1ccc(-c2cccc(O)c2)cc1 . Is its viability, T/C strictly less than 70%?
OUTPUT: satisfied

INPUT: Consider the molecule COc1cc(Nc2ncc3c(n2)-c2ccc(Cl)cc2C(c2c(F)cccc2OC)=NC3)ccc1C(=O)O + NC1CCC(NC2CC2c2ccccc2)CC1 . Is its viability, T/C strictly less than 70%?
OUTPUT: satisfied

###

Test system: 521955-158-R2-J5-PDC complex spheroid viability
protocolDescription: Anticancer human tumor 521955-158-R2-J5-PDC cell line growth inhibition;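 also: spheroids exposed to agents for seven days; percent of DMSO vehicle control luminescence viability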
runParameters: second compound 1 µM; first compound 0.0316 µM; active compounds read low
Description: Multicellular complex tumor spheroid response to LSD1 Inhibitor Iadademstat in combination with a variety of drugs and investigational agents in selected tumor cell lines The current study was undertaken to assess response to LSD1 inhibitors in combination with standard-of-care drugs and investigational agents in solid tumor complex spheroid models as well as in the K-562 leukemia. […] Compounds. […] If the clinical Cmax for an agent had not been determined, the highest concentration tested was 10 microM. […]
measuredMetric: viability, T/C (%)
Enter your answer as a number in %; do not include the unit.

INPUT: Quick check: viability, T/C of Cn1ncnc1C1c2n[nH]c(=O)c3cc(F)cc(c23)NC1c1ccc(F)cc1 (configuration not stated) + NC1CC1c1ccc(-c2cccc(O)c2)cc1 ?
OUTPUT: 94.9

INPUT: Quick check: viability, T/C of CC(C)CC(NC(=O)C(Cc1ccccc1)NC(=O)c1cnccn1)B(O)O (configuration not stated) + NC1CCC(NC2CC2c2ccccc2)CC1 ?
OUTPUT: 0.09

INPUT: Quick check: viability, T/C of Nc1ncn(C2CC(O)C(CO)O2)c(=O)n1 (configuration not stated) + NC1CCC(NC2CC2c2ccccc2)CC1 ?
OUTPUT: 85.3

INPUT: Quick check: viability, T/C of CC(C)CC(NC(=O)CNC(=O)c1cc(Cl)ccc1Cl)B1OC(=O)CC(CC(=O)O)(C(=O)O)O1 (configuration not stated) + NC1CC1c1ccc(-c2cccc(O)c2)cc1 ?
OUTPUT: 0.98

INPUT: Quick check: viability, T/C of CC1COCCN1c1cc(C2(S(C)(=N)=O)CC2)nc(-c2ccnc3[nH]ccc23)n1 (configuration not stated) + NC1CCC(NC2CC2c2ccccc2)CC1 ?
OUTPUT: 79.7

INPUT: Quick check: viability, T/C of CC(C)CC(NC(=O)C(Cc1ccccc1)NC(=O)c1cnccn1)B(O)O (configuration not stated) + NC1CC1c1ccc(-c2cccc(O)c2)cc1 ?
OUTPUT: 0.06

INPUT: Quick check: viability, T/C of O=C(c1cc(Cc2n[nH]c(=O)c3ccccc23)ccc1F)N1CCN(C(=O)C2CC2)CC1 + NC1CCC(NC2CC2c2ccccc2)CC1 ?
OUTPUT: 97.9

INPUT: Quick check: viability, T/C of CC1COCCN1c1cc(C2(S(C)(=N)=O)CC2)nc(-c2ccnc3[nH]ccc23)n1 (configuration not stated) + NC1CC1c1ccc(-c2cccc(O)c2)cc1 ?
OUTPUT: 83

INPUT: Quick check: viability, T/C of CC(C)CC(NC(=O)CNC(=O)c1cc(Cl)ccc1Cl)B1OC(=O)CC(CC(=O)O)(C(=O)O)O1 (configuration not stated) + NC1CCC(NC2CC2c2ccccc2)CC1 ?
OUTPUT: 0.34

INPUT: Quick check: viability, T/C of COc1ccc([C@@H](O)c2cc(-c3ncnc4cc(N5CCOCC5)ccc34)c(F)cc2Cl)nn1 + NC1CCC(NC2CC2c2ccccc2)CC1 ?
OUTPUT: 77.4

INPUT: Quick check: viability, T/C of O=C(C=Cn1cnc(-c2cc(C(F)(F)F)cc(C(F)(F)F)c2)n1)NNc1cnccn1 + NC1CC1c1ccc(-c2cccc(O)c2)cc1 ?
OUTPUT: 79.3

INPUT: Quick check: viability, T/C of CC1(C)CCC(CN2CCN(c3ccc(C(=O)NS(=O)(=O)c4ccc(NCC5CCOCC5)c([N+](=O)[O-])c4)c(Oc4cnc5[nH]ccc5c4)c3)CC2)=C(c2ccc(Cl)cc2)C1 + NC1CCC(NC2CC2c2ccccc2)CC1 ?
OUTPUT: 108

The reported measurements were obtained from PubChem BioAssay AID1918937.
